system: NCI-H647; test: relative viability (nuclei count vs DMSO), 5 days (fraction); higher = more cells survive; conditions: first compound 0.0002 µM
measured.metric: relative viability

{"columns": ["compound", "assay.value"],
 "data": [
  ["CC(=O)O[C@@]12CO[C@@H]1C[C@H](O)[C@@]1(C)C(=O)[C@H](O)C3=C(C)[C@@H](OC(=O)[C@H](O)[C@@H](NC(=O)OC(C)(C)C)c4ccccc4)C[C@@](O)([C@@H](OC(=O)c4ccccc4)[C@H]21)C3(C)C [Docetaxel] + CC(C)C[C@H](NC(=O)[C@H](Cc1ccccc1)NC(=O)c1cnccn1)B(O)O [Bortezomib] (partner 0.002 µM)", 0.762],
  ["CC(=O)O[C@@]12CO[C@@H]1C[C@H](O)[C@@]1(C)C(=O)[C@H](O)C3=C(C)[C@@H](OC(=O)[C@H](O)[C@@H](NC(=O)OC(C)(C)C)c4ccccc4)C[C@@](O)([C@@H](OC(=O)c4ccccc4)[C@H]21)C3(C)C [Docetaxel] + COc1cc2c(Oc3ccc(NC(=O)C4(C(=O)Nc5ccc(F)cc5)CC4)cc3F)ccnc2cc1OCCCN1CCOCC1 [Foretinib] (partner 0.25 µM)", 1.25],
  ["CC(=O)O[C@@]12CO[C@@H]1C[C@H](O)[C@@]1(C)C(=O)[C@H](O)C3=C(C)[C@@H](OC(=O)[C@H](O)[C@@H](NC(=O)OC(C)(C)C)c4ccccc4)C[C@@](O)([C@@H](OC(=O)c4ccccc4)[C@H]21)C3(C)C [Docetaxel] + CCNC(=O)c1noc(-c2cc(C(C)C)c(O)cc2O)c1-c1ccc(CN2CCOCC2)cc1 [Luminespib] (partner 0.01 µM)", 0.112]
]}

----------
test system: NCI-H838; test: relative viability (nuclei count vs DMSO), 5 days (fraction); higher = more cells survive; conditions: first compound 0.01581 µM

{"columns": ["compound", "relative viability"],
 "data": [
  ["COc1cc2nccc(Oc3ccc(NC(=O)Nc4cc(C)on4)c(Cl)c3)c2cc1OC [Tivozanib] + CC(=O)Nc1cccc(-n2c(=O)n(C3CC3)c(=O)c3c(Nc4ccc(I)cc4F)n(C)c(=O)c(C)c32)c1 [Trametinib] (partner 0.02 µM)", 0.555],
  ["Nc1ccn([C@@H]2O[C@H](CO)[C@@H](O)[C@@H]2O)c(=O)n1 [Cytarabine] + CCNC(=O)c1noc(-c2cc(C(C)C)c(O)cc2O)c1-c1ccc(CN2CCOCC2)cc1 [Luminespib] (partner 0.01 µM)", 0.3]
]}

----------
system: LK-2; assay: relative viability (nuclei count vs DMSO), 5 days (fraction); higher = more cells survive; conditions: first compound 0.000632 µM

{"columns": ["compound", "relative viability"],
 "data": [
  ["CC(=O)O[C@@]12CO[C@@H]1C[C@H](O)[C@@]1(C)C(=O)[C@H](O)C3=C(C)[C@@H](OC(=O)[C@H](O)[C@@H](NC(=O)OC(C)(C)C)c4ccccc4)C[C@@](O)([C@@H](OC(=O)c4ccccc4)[C@H]21)C3(C)C [Docetaxel] + C[C@@H](Oc1cc(-c2cnn(C3CCNCC3)c2)cnc1N)c1c(Cl)ccc(F)c1Cl [Crizotinib] (partner 1 µM)", 0.202],
  ["CC(=O)O[C@@]12CO[C@@H]1C[C@H](O)[C@@]1(C)C(=O)[C@H](O)C3=C(C)[C@@H](OC(=O)[C@H](O)[C@@H](NC(=O)OC(C)(C)C)c4ccccc4)C[C@@](O)([C@@H](OC(=O)c4ccccc4)[C@H]21)C3(C)C [Docetaxel] + NC(=O)Nc1cc(-c2cccc(F)c2)sc1C(=O)N[C@H]1CCCNC1 [AZD7762] (partner 0.2 µM)", 0.277],
  ["CC(=O)O[C@@]12CO[C@@H]1C[C@H](O)[C@@]1(C)C(=O)[C@H](O)C3=C(C)[C@@H](OC(=O)[C@H](O)[C@@H](NC(=O)OC(C)(C)C)c4ccccc4)C[C@@](O)([C@@H](OC(=O)c4ccccc4)[C@H]21)C3(C)C [Docetaxel] + Nc1ncn([C@H]2C[C@H](O)[C@@H](CO)O2)c(=O)n1 [Decitabine] (partner 2 µM)", 0.224],
  ["CC(=O)O[C@@]12CO[C@@H]1C[C@H](O)[C@@]1(C)C(=O)[C@H](O)C3=C(C)[C@@H](OC(=O)[C@H](O)[C@@H](NC(=O)OC(C)(C)C)c4ccccc4)C[C@@](O)([C@@H](OC(=O)c4ccccc4)[C@H]21)C3(C)C [Docetaxel] + N=C(N)NC(=N)NCCc1ccccc1 [Phenformin] (partner 250 µM)", 0.27],
  ["CC(=O)O[C@@]12CO[C@@H]1C[C@H](O)[C@@]1(C)C(=O)[C@H](O)C3=C(C)[C@@H](OC(=O)[C@H](O)[C@@H](NC(=O)OC(C)(C)C)c4ccccc4)C[C@@](O)([C@@H](OC(=O)c4ccccc4)[C@H]21)C3(C)C [Docetaxel] + O=C(c1cc(Cc2n[nH]c(=O)c3ccccc23)ccc1F)N1CCN(C(=O)C2CC2)CC1 [Olaparib] (partner 8 µM)", 0.249],
  ["CC(=O)O[C@@]12CO[C@@H]1C[C@H](O)[C@@]1(C)C(=O)[C@H](O)C3=C(C)[C@@H](OC(=O)[C@H](O)[C@@H](NC(=O)OC(C)(C)C)c4ccccc4)C[C@@](O)([C@@H](OC(=O)c4ccccc4)[C@H]21)C3(C)C [Docetaxel] + CS(=O)(=O)CCNCc1ccc(-c2ccc3ncnc(Nc4ccc(OCc5cccc(F)c5)c(Cl)c4)c3c2)o1 [Lapatinib] (partner 2 µM)", 0.662],
  ["CC(=O)O[C@@]12CO[C@@H]1C[C@H](O)[C@@]1(C)C(=O)[C@H](O)C3=C(C)[C@@H](OC(=O)[C@H](O)[C@@H](NC(=O)OC(C)(C)C)c4ccccc4)C[C@@](O)([C@@H](OC(=O)c4ccccc4)[C@H]21)C3(C)C [Docetaxel] + COc1cccc2cc(-c3nc([C@H]4CC[C@H](C(=O)O)CC4)n4ncnc(N)c34)[nH]c12 [OSI-027] (partner 0.5 µM)", 0.186]
]}

Data credit: the supplement of paper PMC10307832
